# EXPERIMENT_DESCRIPTION: Cytotoxicity against Varicella zoster virus infected HEL cells assessed as alteration of cell morphology incubated for 3 days by microscopy
# Type: cell-based
# CONDITIONS_USED: human, HEL cells infected with Varicella zoster virus
ASSAY_METRIC: MCC at 72 h

Here is how some molecules turned out for MCC at 72 h.
O=C(Cn1c(=O)ccn(Cc2ccc(Oc3ccc(Br)cc3)cc2)c1=O)Nc1ccc(Oc2ccccc2)cc1 : 20 µM
N#Cc1ccc(OCCCCCn2ccc(=O)n(CC(=O)Nc3ccc(Oc4ccccc4)cc3)c2=O)cc1 : > 100 µM
O=C(Cn1c(=O)ccn(CCCCCOc2ccc(Br)cc2)c1=O)Nc1ccc(OCc2ccccc2)cc1 : ≥ 20 µM
O=C(Cn1c(=O)ccn(CCCCCOc2ccc(-c3ccccc3)cc2)c1=O)Nc1ccc(Oc2ccccc2)cc1 : 100 µM
O=C(Cn1c(=O)ccn(CCCCCOc2ccc(Br)cc2)c1=O)Nc1ccc(Cc2ccccc2)cc1 : ≥ 4 µM

Ask: Could you tell me which MCC at 72 h is on file for CN(C(=O)Cn1c(=O)ccn(CCCCCOc2ccc(Br)cc2)c1=O)c1ccc(Oc2ccccc2)cc1 ?
Reply: ≥ 100 µM

Ask: Could you tell me which MCC at 72 h is on file for O=C(Cn1c(=O)ccn(CCCCCOc2ccccc2)c1=O)Nc1ccc(Oc2ccccc2)cc1 ?
Reply: > 100 µM

Ask: Could you tell me which MCC at 72 h is on file for O=C(Cn1c(=O)ccn(CCCCCCOc2ccc(Br)cc2)c1=O)Nc1ccc(Oc2ccccc2)cc1 ?
Reply: 4 µM

Ask: Could you tell me which MCC at 72 h is on file for O=C(Cn1c(=O)ccn(CCCCOCc2ccc(Br)cc2)c1=O)Nc1ccc(Oc2ccccc2)cc1 ?
Reply: > 100 µM

----------
# EXPERIMENT_DESCRIPTION: Selectivity index, ratio of CC50 for human cytomegalovirus AD169 infected HEL cells to EC50 for human cytomegalovirus AD169
# Type: toxicity, cell-based
# CONDITIONS_USED: HEL cells infected with human cytomegalovirus AD169, read-out: Ratio CC50/EC50
ASSAY_METRIC: selectivity ratio

Ask: Could you tell me which selectivity ratio is on file for O=C(Cn1c(=O)ccn(CCCCCOc2ccc(Br)cc2)c1=O)Nc1ccc(Oc2ccccc2)cc1 ?
Reply: 9

----------
The molecules listed here are annotated with their MCC at 72 h.
# EXPERIMENT_DESCRIPTION: Cytotoxicity against human cytomegalovirus infected HEL cells assessed as alteration of cell morphology incubated for 3 days by microscopy
# Type: cell-based
# CONDITIONS_USED: HEL cells infected with human cytomegalovirus

Here is how some molecules turned out for MCC at 72 h.
O=C(Cn1c(=O)ccn(CCCCCOc2ccc(-c3ccccc3)cc2)c1=O)Nc1ccc(Oc2ccccc2)cc1 : 20 µM
N#Cc1ccc(OCCCCCn2ccc(=O)n(CC(=O)Nc3ccc(Oc4ccccc4)cc3)c2=O)cc1 : ≥ 4 µM

Ask: Could you tell me which MCC at 72 h is on file for O=C(Cn1c(=O)ccn(CCCCCCc2ccccc2)c1=O)Nc1ccc(Oc2ccccc2)cc1 ?
Reply: 100 µM

----------
# Tested on: Coxsackievirus B4
# EXPERIMENT_DESCRIPTION: Antiviral activity against Human coxsackievirus B4
# Type: functional, organism-based
Activity calls are given as the source filed them. The rule behind the calls is not given here.
ASSAY_METRIC: inhibition

Here is how some compounds turned out for inhibition.
O=C(Cn1c(=O)ccn(CCCCCOc2cccc(Br)c2)c1=O)Nc1ccc(Oc2ccccc2)cc1 : inactive
O=C(Cn1c(=O)ccn(CCCCCOc2ccccc2)c1=O)Nc1ccc(Oc2ccccc2)cc1 : inactive
O=C(Cn1c(=O)ccn(CCCCCOc2ccc(Br)cc2)c1=O)Nc1ccccc1 : inactive
O=C(Cn1c(=O)ccn(CCCOc2ccc(Br)cc2)c1=O)Nc1ccc(Oc2ccccc2)cc1 : inactive
O=C(Cn1c(=O)ccn(CCCCCCc2ccccc2)c1=O)Nc1ccc(Oc2ccccc2)cc1 : inactive
O=C(Cn1c(=O)ccn(CCCCCCOc2ccc(Br)cc2)c1=O)Nc1ccc(Oc2ccccc2)cc1 : inactive
O=C(Cn1c(=O)ccn(CCCCCOc2ccc(-c3ccccc3)cc2)c1=O)Nc1ccc(Oc2ccccc2)cc1 : inactive
O=C(Cn1c(=O)ccn(CCCCCCCCOc2ccc(Br)cc2)c1=O)Nc1ccc(Oc2ccccc2)cc1 : inactive
O=C(Cn1c(=O)ccn(CCCCCOc2ccc(Br)cc2)c1=O)Nc1ccc(Cc2ccccc2)cc1 : inactive
O=C(Cn1c(=O)c(I)cn(CCCCCOc2ccc(Br)cc2)c1=O)Nc1ccc(Oc2ccccc2)cc1 : inactive

Ask: I'm curious: which inhibition was measured for N#Cc1ccc(OCCCCCn2ccc(=O)n(CC(=O)Nc3ccc(Oc4ccccc4)cc3)c2=O)cc1 tested on Coxsackievirus B4?
Reply: inactive

Ask: I'm curious: which inhibition was measured for O=C(Cn1c(=O)ccn(CCCCCOc2ccc(Br)cc2)c1=O)Nc1ccc(C(=O)c2ccccc2)cc1 tested on Coxsackievirus B4?
Reply: inactive

Ask: I'm curious: which inhibition was measured for O=C(Cn1c(=O)ccn(CCCCCOc2ccc(Br)cc2)c1=O)Nc1ccc(OCc2ccccc2)cc1 tested on Coxsackievirus B4?
Reply: inactive

Ask: I'm curious: which inhibition was measured for O=C(Cn1c(=O)ccn(CCCCOc2ccc(Br)cc2)c1=O)Nc1ccc(Oc2ccccc2)cc1 tested on Coxsackievirus B4?
Reply: inactive
